Property: kinase still bound, per cent of control; scope: individual molecules
# target-entity: UniProt:Q9UEW8
# assay-overview: KINOMEscan competition binding
# test-context: compound 10.0 µM
Write down the numeric answer in % and omit the unit.

In the examples that follow, each entry is paired with its recorded kinase still bound, per cent of control.
> print(dat)
                         structure.notation  observed
1  C[C@@H](Oc1cc(-n2cnc3ccc(CN4CCN(C)CC4)cc32)sc1C(N)=O)c1ccccc1C(F)(F)F        11
2             Cc1ccc2nc(NCCN)c3ncc(C)n3c2c1       100
3  Cc1cc([C@@H](C)Nc2ccccc2C(=O)O)c2nc(N3CCOCC3)cc(=O)n2c1       100
4  O=C(NOC[C@H](O)CO)c1ccc(F)c(F)c1Nc1ccc(I)cc1F        96

Sample O=C(O)c1ccc(Nc2ncc3c(n2)-c2ccc(Cl)cc2C(c2c(F)cccc2F)=NC3)cc1 ; kinase still bound, per cent of control observed: 100
